Origin of the recorded values: the METLIN SMRT retention time set (Domingo-Almenara et al. 2019)

Known RP-LC retention time of a selection of compounds
Assay: gradient 5% acetonitrile 3 min, to 50% in 2 min, to 85% in 15 min, held 3 min, 100 µL/min
Settings: column: Zorbax Extend-C18 2.1 x 50 mm; eluents: water / acetonitrile, 0.1% formic acid
valueKind: RP-LC retention time (s)

compound	observed
Cc1oc2c(C)c3oc(=O)c(CC(=O)N4CCC(C(N)=O)CC4)c(C)c3cc2c1C	735
O=C(NC1CC(=O)N(Cc2ccccc2)C1)c1ccco1 (centres undefined)	667
Cc1cnc(-c2ccccc2C(C)C)nc1NCc1ccc(-n2ccnn2)cc1	770
CCc1cccc(Nc2c(C(=O)N3CCCCC3C)cnc3nc(C)ccc23)c1 (centres undefined)	677

* * *

Test: gradient 5% acetonitrile 3 min, to 50% in 2 min, to 85% in 15 min, held 3 min, 100 µL/min
Conditions: column: Zorbax Extend-C18 2.1 x 50 mm; eluents: water / acetonitrile, 0.1% formic acid

molecule	unitString	RP-LC retention time
Cc1ccc(NC(=O)CN2C(=O)CC(C)S(=O)(=O)c3ccccc32)cc1Cl (stereo not given)	s	894
Cc1c(C(=O)NC(C)C)cnn1-c1ccc(-c2nc(C(C)C)no2)cn1	s	931
Cc1cnc(-c2ccncc2)n1C1CCCN(S(=O)(=O)c2cn(C)cn2)C1 (stereo not given)	s	557
COc1ccc(/C=C/c2nc(C#N)c(NCCCN(C)C)o2)cc1OC	s	629
CCN1C(=O)C2(CCN(S(=O)(=O)c3cccs3)CC2)c2ccccc21	s	983
COc1cccc2cc(C(=O)NCCn3nc(C)cc3C)oc12	s	674
Cc1c(C(=O)N2CCN(C(=O)COc3ccccc3)CC2)[nH]c2ccccc12	s	819
CC(C)NC(=O)N1CCCC(c2cccc(C(=O)NCCN3CCCCC3C)c2)C1 (stereo not given)	s	624
O=C(Nc1cccc(Cl)c1)N1CCC(n2cnnc2C2CC2)C1 (stereo not given)	s	658
O=C(Nc1nnc(C2CC(=O)N(c3ccc(Cl)cc3)C2)o1)c1ccccc1 (stereo not given)	s	752
O=C(Nc1cnc(N2CCCC2)nc1)c1cccc(Cl)c1	s	765
O=C(O)c1ccc2c(c1)C(=O)N(Nc1ccccc1[N+](=O)[O-])C2=O	s	953
Cc1ccc(N2C(=O)C3N=NN(Cc4nc(-c5ccc6c(c5)OCO6)no4)C3C2=O)cc1Cl (stereo not given)	s	1010
CCCN1CCN(C(=O)Cc2ccc3nc(NC(C)=O)sc3c2)CC1	s	578
Cc1[nH]c(C(=O)N2CCN(c3ccccc3F)CC2)c(C)c1S(=O)(=O)N1CCOCC1	s	793
O=C(c1ccc(OCC2CCCN2C(=O)Cc2ccc(Cl)cc2)cc1)N1CCOCC1 (stereo not given)	s	811
O=C(NCc1cccnc1)C1=C2CCCN2c2ccc(F)cc2S1(=O)=O	s	572
CCn1nnc2c(SCc3cc(OC)cc(OC)c3)ncnc21	s	917
Cc1ccsc1C(=O)Nc1ccc(N2CCN(c3ccccc3)C2=O)nc1	s	893
COc1ccc(NC(=O)Cn2nc3c(N4CCSCC4)nccn3c2=O)c(OC)c1	s	797
CCN1CCCn2cc(S(=O)(=O)Nc3ccc(F)c(Cl)c3)cc2C1=O	s	738
COC(=O)c1ccc(NC(=O)N2CCCC2c2ccc(OC)cc2)cc1 (stereo not given)	s	906
COc1ccc(NC(=O)CCc2c(C)nn(-c3cc(N(C)C)ncn3)c2C)cc1OC	s	697
O=C(NC1CC1)C1Cc2ccccc2CN1S(=O)(=O)c1ccc(Cl)cc1 (stereo not given)	s	909
Cc1ccc(NS(=O)(=O)c2cc3c(s2)CCN(C(=O)C2CC2)C3)cc1F	s	880
Cc1ccc(Cl)cc1NC(=O)C(C)n1cnc2nc3c(cc2c1=O)CCCC3 (stereo not given)	s	809
COCCCNC(=O)Cn1ccc2c(SCc3ccccc3)nccc21	s	636
CCc1cc(C(=O)Nc2ccccc2C)nc2ccnn12	s	1010
CC(=O)N(C)CCc1noc(C2CN(C(=O)Cc3cccs3)C2)n1	s	627
CCn1nc(C)n2cc(S(=O)(=O)NCc3ccco3)cc2c1=O	s	779

* * *

Experiment: gradient 5% acetonitrile 3 min, to 50% in 2 min, to 85% in 15 min, held 3 min, 100 µL/min
Details: column: Zorbax Extend-C18 2.1 x 50 mm; eluents: water / acetonitrile, 0.1% formic acid

molecule	unitString	RP-LC retention time
Cc1ccccc1-c1nc(C2CCN(S(=O)(=O)c3cccc(F)c3)CC2)no1	s	1160
Cc1ccc(-c2nc3cnccn3c2Nc2ccc(C)cc2C)cc1	s	1070
O=S(=O)(c1cc(-c2cc(C(F)(F)F)on2)cs1)N(Cc1ccco1)C1CCCCC1	s	1300
Cc1ccc(-c2ncn(C3CCCCC3)c2-c2ccc(C(=O)N3CCN(c4ncccn4)CC3)o2)cc1	s	748
CCCN(C)C(=O)C1CCCN(c2cnc3nccnc3c2)C1 (stereo not drawn)	s	655
O=C(CCc1nc(C2=CCN(Cc3ccc(Cl)cc3)CC2)no1)NC1CC1	s	890
O=C(NCc1ccncc1)C1CCCN(c2ncnc3c2oc2ccccc23)C1 (stereo not drawn)	s	579
Cc1sc2cc(C(=O)N3CCN(c4ccc(F)cc4)CC3)[nH]c2c1CN1CCOCC1	s	690
COc1ccc(NC(=O)N2CCC(n3c(-c4ccco4)nc4cccnc43)C2)cc1Cl (stereo not drawn)	s	753
CCOC(=O)c1cn(-c2c(F)c(F)c(C#N)c(F)c2F)c2c(F)c(F)c(F)cc2c1=O	s	981
CCC(C)NC(=O)Cn1cccc(-c2nc(-c3ccc(C)cc3)no2)c1=O (stereo not drawn)	s	814
O=S(=O)(c1cccc(F)c1)N1CC(n2cc(COc3ccc(F)cc3)nn2)C1	s	923
O=C(Nc1ccc2c(c1)OCCO2)N1CCC(Cc2noc(C3CCOCC3)n2)C1 (stereo not drawn)	s	698
CCOc1cc(=O)c(C(=O)N2CCC(C(N)=O)CC2)nn1-c1ccc(F)c(F)c1	s	625
Cc1nc(-c2nnn(-c3ccc(Cl)cc3)c2C)sc1C(=O)NC1CCCCC1	s	1160
CN1CCCN(C(=O)CN2CCCc3nc(C4CC4)ncc3C2=O)CC1	s	570
O=C(Cn1c(=O)sc2ccccc21)Nc1nc(-c2ccc(Br)cc2)cs1	s	1070
Cc1cccc(Nc2nc(C(=O)NCCc3ccco3)nc3ccccc23)c1	s	808
CCN(CC)S(=O)(=O)c1cc(-c2nnc(-c3ccc(OC)c(OC)c3)o2)ccc1Cl	s	1010
COc1ccc(OC)c(-c2csc(Nc3ccc(Br)cn3)n2)c1	s	1190
COc1ccc(C2c3c(oc4cc(C)c(C)cc4c3=O)C(=O)N2CCCN2CCOCC2)cc1OC (stereo not drawn)	s	766
O=C(NC1CC1)C1CCN(Cc2cc3ccccc3n2Cc2ccccc2)CC1	s	694
O=C(CCNc1cnc2cnccn12)NCCC1=CCCCC1	s	626
CC(C)c1noc(-c2ccnc(-n3cnc(C(=O)N4CCCC4)c3)c2)n1	s	616
CC(C)CN1CCN(C(=O)c2ccc(-c3ccnc(N4CCCC4)n3)cc2)CC1	s	587
Cc1ccc2nc(N3CCNCC3)c(-c3noc(-c4ccccc4)n3)cc2c1	s	770
O=C(CCc1nc2ccccc2[nH]1)N1CCC(c2noc(-c3ccncc3)n2)C1 (stereo not drawn)	s	557
COc1ccc(Cc2nc3nccc(-c4cccc(OC)c4)n3n2)cc1	s	887
Cc1c2cnccc2c(C)c2c1c1ccccc1n2CCOC(=O)c1ccccc1	s	751
COc1ccccc1-n1c(SCC(=O)Nc2ncn[nH]2)nc2ccccc2c1=O	s	642
CC(C)C(=O)N1CCc2cc(C(=O)N3CCCC3)ccc21	s	720
c1ccc2c(N3CCOCC3)nnc(N3CCCC3)c2c1	s	574
CCc1noc(NC(C)=O)c1-c1ccc(C)c(S(=O)(=O)Nc2cc(C)ccc2OC)c1	s	884

* * *

Known RP-LC retention time of a selection of compounds
Test: gradient 5% acetonitrile 3 min, to 50% in 2 min, to 85% in 15 min, held 3 min, 100 µL/min
Conditions: column: Zorbax Extend-C18 2.1 x 50 mm; eluents: water / acetonitrile, 0.1% formic acid
valueKind: RP-LC retention time (s)

compound	valueKind	unitString	observed
O=C1NCCCCCCN(C(=O)c2cn[nH]c2)[C@H]2CCC[C@@H]12	RP-LC retention time	s	625
Cc1noc(CNC(=O)C2CCN(C(=O)Cn3c(=O)oc4ccccc43)CC2)n1	RP-LC retention time	s	608
COc1ccc(-c2cn3c(C(=O)Nc4ccc5c(c4)OCCO5)csc3n2)cc1	RP-LC retention time	s	813
Cc1cc(C(=O)N2CCC(N3C(=O)C4(CCCC4)C3c3scnc3C)CC2)n(C)n1 (stereo not given)	RP-LC retention time	s	691
COc1ccc(/C=C/C(=O)Oc2cc(O)cc(O)c2)cc1	RP-LC retention time	s	763

* * *

Experiment: gradient 5% acetonitrile 3 min, to 50% in 2 min, to 85% in 15 min, held 3 min, 100 µL/min
Conditions: column: Zorbax Extend-C18 2.1 x 50 mm; eluents: water / acetonitrile, 0.1% formic acid
valueKind: RP-LC retention time (s)

compound	unitString	observed
COc1ccc(-c2noc(C3CCCN3C(=O)c3cccc(F)c3)n2)cc1 (stereo not drawn)	s	946
Cc1ccc(Cl)cc1NC(=O)Cn1c(C)nc2c(sc3nc(-c4ccccc4)ccc32)c1=O	s	1140
O=C1CC(c2ccc3c(c2)OCO3)c2c(c(C(=O)O)cn2-c2cccc(F)c2)N1 (stereo not drawn)	s	777
Cc1cc(C)cc(N2CCC(NC(=O)Cc3ccc(F)cc3)C2=O)c1 (stereo not drawn)	s	864
O=C(Cc1c[nH]c2ccccc12)NCCc1c[nH]c2ccc(F)cc12	s	804
Cc1cccc(NC(=O)c2[nH]c(C)c(S(=O)(=O)N3CCCC3)c2C)c1C	s	858
CCc1ccc(NC(=O)Cn2nc3c(N(C)C4CCCCC4)nccn3c2=O)cc1	s	823
CCN(CC)CCCNC(=O)c1c(-c2ccc(Br)s2)noc1C	s	652
CCn1ccc(C(=O)NC)n1	s	566
COc1cc(-c2nnc(SCC(=O)N3CCCC(C)C3)o2)cc(OC)c1OC (stereo not drawn)	s	889
CCN(c1ccccc1C)S(=O)(=O)c1cc(-c2[nH]ncc2C(=O)N(C)C)oc1C	s	782
CN1C(=O)c2cc(C(=O)N3CCC(C(N)=O)CC3)nn2CC1(C)C(=O)NC1CCCCCC1 (stereo not drawn)	s	956
CC1=NOC(C)(CNC(=O)NC2CCCCC2)C1 (stereo not drawn)	s	659
CCOC(=O)c1nc(NCCN2CCCc3ccccc32)c2ccccc2n1	s	729
Cc1csc(-c2ccc(N3CCN(C(=O)c4ccccc4Br)CC3)nc2)n1	s	884
CC1=C(c2ccc(C)cc2)S(=O)(=O)N=C1N1CCCN(C(=O)c2cccc(F)c2)CC1	s	859
CCCn1cc(C2=CCN(S(=O)(=O)c3cccc(Cl)c3)CC2)c2cccnc21	s	1110
Fc1ccc(-c2noc(Cc3nnc(-c4ccc(Cl)cc4)o3)n2)cc1	s	1070
O=C(NC(c1ccccc1)c1nnc(N2CCOCC2)o1)c1ccc2c(c1)OCO2 (stereo not drawn)	s	726
CC(C)COc1cc(=O)n2c(c1C(=O)N1CCN(c3ccccn3)CC1)CCCCC2	s	591
Cc1cc(C2CCCN2C(=O)Nc2ccc(C)c(F)c2)on1 (stereo not drawn)	s	822
CCCCOc1ccc(-c2cc3c4nnc(CCC(=O)NCc5cccc(OC)c5)n4ccn3n2)cc1	s	946
COc1ccc(-c2nnc(-c3ccc(C)c(S(=O)(=O)N4CCC(C(=O)O)CC4)c3)o2)cc1OC	s	785
O=C(NC1CCCCCCC1)C1CC(=O)N(CCc2c[nH]c3ccc(F)cc23)C1 (stereo not drawn)	s	859
CCOC(=O)c1noc2ncnc(NCC3CCN(Cc4ccccc4Cl)CC3)c12	s	603
COc1ccc(OC)c(NC(=O)c2cc(NC(=O)C(C)C)cc3nc(C)ccc23)c1	s	663
Cc1c(S(=O)(=O)NCc2ccc3c(c2)CCN3C(=O)CC(C)C)cnn1C(F)F	s	911
COC(=O)c1c(-c2ccc(Cl)cc2)noc1NCCCN1CCOCC1	s	667
O=C(CN1c2ccc(F)cc2-c2ccccc2S1(=O)=O)NCCCN1CCOCC1	s	625
CCOC(=O)C(=O)Nc1nnc(SCc2nnc(-c3ccccc3C)o2)s1	s	829
CC(=O)N1CCc2c(sc(NC(=O)c3cc(=O)c4ccccc4o3)c2C#N)C1	s	670
Cc1cccc(S(=O)(=O)N2CCC3(C2)C(=O)N(C)c2ccccc23)c1 (stereo not drawn)	s	910
COC(=O)c1ccc(C2CC(=O)NC3=C2C(=O)CC(c2ccc(F)cc2)C3)cc1 (stereo not drawn)	s	820
